experiment notes: AUC in rat at 0.5 mg/kg, iv and 2 mg/kg, po
Assay type: ADME, organism-based
condition set: plasma
parameter measured: AUC
Express your answer as a number followed by its unit.

// lookup AUC for OC1CCN(Cc2cc(Br)ccc2OCc2ccc(Cl)cc2)CC1
56 ng·h/mL

====

measured target: C-C chemokine receptor type 5 (Homo sapiens, UniProt P51681)
Sequence (P51681 whole entry): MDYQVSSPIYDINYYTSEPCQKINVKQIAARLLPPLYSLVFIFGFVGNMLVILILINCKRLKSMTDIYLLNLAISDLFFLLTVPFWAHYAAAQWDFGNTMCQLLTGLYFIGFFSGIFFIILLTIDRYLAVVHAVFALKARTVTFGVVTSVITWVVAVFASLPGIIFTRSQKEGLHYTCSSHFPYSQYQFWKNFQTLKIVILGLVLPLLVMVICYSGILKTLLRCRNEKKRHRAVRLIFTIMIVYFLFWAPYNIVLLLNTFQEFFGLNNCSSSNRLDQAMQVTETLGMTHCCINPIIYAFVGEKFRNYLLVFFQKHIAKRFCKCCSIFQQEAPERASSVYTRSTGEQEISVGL
experiment notes: Displacement of [125I]MIP1alpha from human CCR5 receptor expressed in HEK293 cells co-expressing CD4
Classify on IC50 using low interval (below 200 nM), middle interval (200 nM to below 1000 nM), high interval (1000 nM or more)

Use the examples below as a reference point.
Clc1ccc(COc2ccc(Br)cc2CN2CCCC2)cc1 = high interval
Clc1ccc(COc2ccc(Br)cc2CN2CCC(N3CCNCC3)CC2)cc1 = middle interval
O=C(NCC1(O)CCN(Cc2cc(Br)ccc2OCc2ccc(Cl)cc2)CC1)Nc1c(Cl)cccc1Cl = low interval

State the band of CN(Cc1ccccc1)Cc1cc(Br)ccc1OCc1ccc(Cl)cc1
high interval

State the band of OC1CCN(CC2(O)CCN(Cc3cc(Br)ccc3OCc3ccc(Cl)cc3)CC2)CC1
high interval

State the band of O=C1CCN(Cc2cc(Br)ccc2OCc2ccc(Cl)cc2)CC1
low interval

State the band of O=C(O)C1CCN(Cc2cc(Br)ccc2OCc2ccc(Cl)cc2)CC1
high interval

State the band of CC(=O)NC1CCN(Cc2cc(Br)ccc2OCc2ccc(Cl)cc2)CC1
middle interval

State the band of CC(C)c1cccc(C(C)C)c1NC(=O)NCC1(O)CCN(Cc2cc(Br)ccc2OCc2ccc(Cl)cc2)CC1
low interval

State the band of Cc1cccc(C)c1NC(=O)NCC1(O)CCN(Cc2cc(Br)ccc2OCc2ccc(Cl)cc2)CC1
low interval

====

In this section we review reported pIC50 values for a set of compounds.
measured target: C-C chemokine receptor type 5 (Homo sapiens)
experiment notes: Displacement of [125I]MIP1alpha from human CCR5 receptor expressed in HEK293 cells co-expressing CD4
Here pIC50 is given on a logarithmic scale as minus log10 of the concentration in mol/L.

O=C(NCC1(O)CCN(Cc2cc(Br)ccc2OCc2ccc(Cl)cc2)CC1)Nc1c(Cl)cc(Cl)cc1Cl = 6.35

// lookup pIC50 for CCOC1CCN(Cc2cc(Br)ccc2OCc2ccc(Cl)cc2)CC1
6.35

// lookup pIC50 for OC1(C(F)(F)F)CCN(Cc2cc(Br)ccc2OCc2ccc(Cl)cc2)CC1
6.24

====

experiment notes: Clearance in rat at 0.5 mg/kg, iv and 2 mg/kg, po
Format: ADME, organism-based
condition set: in vivo
parameter measured: clearance (L/h/kg)
Number only, in L/h/kg; omit the unit.

// lookup clearance for OC1CCN(Cc2cc(Br)ccc2OCc2ccc(Cl)cc2)CC1
8.76

====

experiment notes: Half life in rat at 0.5 mg/kg, iv and 2 mg/kg, po
Format: ADME, organism-based
condition set: in vivo
parameter measured: half-life (min)
Number only, in min; omit the unit.

// lookup half-life for OC1CCN(Cc2cc(Br)ccc2OCc2ccc(Cl)cc2)CC1
43.2

====

experiment notes: Clearance in rat at 1 mg/kg, iv and 5 mg/kg, po
Type: ADME, organism-based
condition set: in vivo
parameter measured: clearance (mL/min/kg)
Number only, in mL/min/kg; omit the unit.

// lookup clearance for CCc1cccc(CC)c1NC(=O)NCC1(O)CCN(Cc2cc(Br)ccc2OCc2ccc(Cl)cc2)CC1
60
